- assayed_system: D816V KIT (Homo sapiens (Human), UniProt P10721, D816V)
- Sequence (P10721 26-976 D816V): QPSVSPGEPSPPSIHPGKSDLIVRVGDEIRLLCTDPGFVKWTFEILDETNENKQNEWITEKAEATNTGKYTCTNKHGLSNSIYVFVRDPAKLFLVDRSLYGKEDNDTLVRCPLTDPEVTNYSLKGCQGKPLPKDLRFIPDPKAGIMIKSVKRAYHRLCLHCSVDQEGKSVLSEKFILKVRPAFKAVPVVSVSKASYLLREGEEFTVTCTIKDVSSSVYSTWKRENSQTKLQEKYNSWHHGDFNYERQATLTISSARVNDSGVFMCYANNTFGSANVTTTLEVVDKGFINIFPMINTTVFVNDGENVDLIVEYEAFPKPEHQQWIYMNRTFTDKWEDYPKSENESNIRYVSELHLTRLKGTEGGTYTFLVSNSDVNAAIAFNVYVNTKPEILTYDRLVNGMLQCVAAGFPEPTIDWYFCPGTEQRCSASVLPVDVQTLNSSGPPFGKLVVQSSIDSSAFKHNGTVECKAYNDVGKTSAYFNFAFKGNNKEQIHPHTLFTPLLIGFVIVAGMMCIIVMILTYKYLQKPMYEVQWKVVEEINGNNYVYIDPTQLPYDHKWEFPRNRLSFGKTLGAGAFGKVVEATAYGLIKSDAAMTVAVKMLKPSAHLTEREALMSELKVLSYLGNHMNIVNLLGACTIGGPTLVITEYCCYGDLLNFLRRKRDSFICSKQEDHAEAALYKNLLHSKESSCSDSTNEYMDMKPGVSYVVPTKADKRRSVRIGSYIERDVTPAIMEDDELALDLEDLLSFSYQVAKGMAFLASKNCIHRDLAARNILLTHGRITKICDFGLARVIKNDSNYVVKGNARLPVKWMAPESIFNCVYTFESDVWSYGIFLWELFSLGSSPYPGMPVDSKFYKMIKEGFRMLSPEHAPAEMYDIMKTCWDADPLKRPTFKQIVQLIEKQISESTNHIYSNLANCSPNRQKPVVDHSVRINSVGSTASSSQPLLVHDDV
- assay_notes: KIT D816V assay at Km (Caliper electrophoretic mobility shift)
- condition_summary: biochemical, 15 uM ATP (Km), 90 minutes at 25 C; read-out: INH KIT D816V
reported_endpoint: IC50

Examples with answers:
| compound | IC50 |
| --- | --- |
| C[C@@](O)(c1cnc(N2CCN(c3ncnn4cc(-c5cn[nH]c5)cc34)CC2)nc1)c1ccc(F)cc1F | < 1 nM |
| Cn1cc(-c2cc3c(N4CCN(c5ncc([C@@](C)(O)c6ccc(F)cc6F)cn5)CC4)ncnn3c2)cn1 | < 1 nM |
| Fc1ccccc1Sc1cnc(N2CCN(c3ncnn4cc(-c5cnn(C[C@@H]6CNCCO6)c5)cc34)CC2)nc1 | 1.01 to 10 nM |
| Cc1ncc(-c2cc3c(N4CCN(c5ncc([C@@](C)(O)c6ccc(F)cc6)cn5)CC4)ncnn3c2)s1 | < 1 nM |
| C[C@@H]1CN(c2ncnn3cc(-c4cnn(C)c4)cc23)CCN1c1ncc([C@@](C)(O)c2ccc(F)cc2)cn1 | 1.01 to 10 nM |
| CC(C)(C)OC(=O)N1CC=C(c2cc3c(N4CCN(c5ncc([C@@](C)(O)c6ccc(F)cc6)cn5)CC4)ncnn3c2)CC1 | 1.01 to 10 nM |

Attention now shifts to the item below.
Lab note: CC[C@@H](c1ccc(F)cc1)c1cnc(N2CCN(c3ncnn4cc(-c5cnn(C)c5)cc34)CC2)nc1 (single isomer, unassigned) gave IC50 of 1.01 to 10 nM
